# measured_on: CCL13_HUMAN (Homo sapiens, UniProt Q99616)
# Sequence (Q99616 17-98): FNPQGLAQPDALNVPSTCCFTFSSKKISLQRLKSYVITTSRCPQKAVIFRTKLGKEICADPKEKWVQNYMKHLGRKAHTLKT
# assay_method_text: Biolayer interferometry (BLI) binding
Below, each entry is listed alongside its reported Kd.
Only the number, expressed in nM, is required.

Example entries and their recorded answers appear below.
[
  {
    "molecule": "P983_AMBPA: tick CKBP; named P983_AMBCA in Table 1 (protein, Amblyomma cajennense) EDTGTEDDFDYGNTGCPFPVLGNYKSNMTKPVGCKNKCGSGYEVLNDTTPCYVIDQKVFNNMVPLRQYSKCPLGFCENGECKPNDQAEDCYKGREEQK",
    "Kd, nM": 17
  },
  {
    "molecule": "P1180_AMBTR: tick CKBP, Amblyomma triste (protein, Amblyomma triste) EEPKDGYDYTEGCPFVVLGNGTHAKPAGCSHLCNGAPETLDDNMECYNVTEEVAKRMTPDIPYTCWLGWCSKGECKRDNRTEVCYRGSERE",
    "Kd, nM": 9
  }
]

Request the reported Kd associated with P991_AMBCA: tick CKBP, Amblyomma cajennense (protein, Amblyomma cajennense) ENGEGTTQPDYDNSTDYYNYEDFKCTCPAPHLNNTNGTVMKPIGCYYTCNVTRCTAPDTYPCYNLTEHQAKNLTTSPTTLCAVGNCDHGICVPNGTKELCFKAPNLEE
0.419
